Organism: Rattus norvegicus
Assay: In vitro evaluation for concentration to inhibit KCI (25 mM ) induced contractions of rat aorta
Format: functional
Settings: Rattus norvegicus, Aorta
MEASUREMENT LABEL: pIC50
# log scale: pIC50 equals minus log10 of the concentration in mol/L

Problem: Specify pIC50 for CC1(C)Oc2ccc(C#N)cc2[C@H](N2CCCC2=O)[C@H]1O (single isomer, unassigned) [(-)-CROMAKALIM] and stop.
Solution: 7.22

Problem: Return value of pIC50 for input CC1(C)C[C@H](NS(=O)(=O)C(F)(F)F)c2cc(OC(F)(F)F)ccc2O1 , no commentary.
Solution: 4.97

Problem: Indicate its recorded pIC50; the molecule in question is CC1(C)Oc2ccc(OC(F)(F)F)cc2[C@@H](N2Cc3ccccc3C2=O)[C@@H]1O
Solution: 7.89

Next:
Problem: Assign pIC50 to the following record: CC1(C)Oc2ccc(OC(F)(F)F)cc2[C@H](NS(=O)(=O)C(F)(F)F)[C@H]1O
Solution: 5.59

These entries and their values trace back to ChEMBL document CHEMBL1127266.
